tested on: LOX IMVI; assay: NCI 60 cell line panel screen (SRB); type: cell-based, human; conditions: Melanoma, LOX IMVI
Each entry below lists one item and its recorded Log10GI50 value.
Readout name: Log10GI50

CC(=O)O[C@H]1C(=O)[C@@]2(C)[C@H]([C@H](OC(=O)c3ccccc3)[C@]3(O)C[C@H](OC(=O)[C@H](O)[C@@H](NC(=O)c4ccccc4)c4ccccc4)C(C)=C1C3(C)C)[C@]1(OC(C)=O)CO[C@@H]1C[C@@H]2O [Paclitaxel, paclitaxel, reference compound]	−11.80
CC1CCC2C(C)C(CC(CO)CC3OC4OC5(C)CCC6C(C)CCC(C3C)C46OO5)OC3OC4(C)CCC1C32OO4 (stereo not shown)	−7.26

====

system: HL-60(TB); assay: NCI 60 cell line panel screen (SRB); format: cell-based, human; conditions: HL-60(TB) (Leukemia); LC50: PG=−50
Readout name: Log10LC50

CC1CCC2C(C)C(CC(COC(=O)CCC(=O)O)CC3OC4OC5(C)CCC6C(C)CCC(C3C)C46OO5)OC3OC4(C)CCC1C32OO4 (stereo not drawn) [Compound 8a, bis-trioxane primary succinate monoester]	>−4.30 log10M
C[C@@H]1CC[C@H]2[C@@H](C)C(=O)O[C@@H]3O[C@]4(C)CC[C@@H]1[C@]32OO4 [Artemisinin]	>−4.00 log10M
C[C@@H]1CC[C@H]2[C@@H](C)C(CC(O)(COC(=O)CCC(=O)O)CC3OC4O[C@]5(C)CC[C@H]6[C@H](C)CC[C@@H]([C@H]3C)C46OO5)OC3O[C@]4(C)CCC1C32OO4 (stereo partly drawn) [Compound 9, tertiary alcohol primary succinate ester]	>−4.30 log10M

====

test system: 60 cell line panel; type: cell-based
// Log10GI50 Range lookup, one value per entry
Readout name: Log10GI50 Range

CC1CCC2C(C)C(CC(O)(CC3OC4OC5(C)CCC6C(C)CCC(C3C)C46OO5)CS(=O)(=O)c3ccc(C(=O)O)cc3)OC3OC4(C)CCC1C32OO4 (stereo not drawn) [Compound 10c]	3.48
C[C@@H]1CC[C@H]2[C@@H](C)C(=O)O[C@@H]3O[C@]4(C)CC[C@@H]1[C@]32OO4	0.73
CC1CCC2C(C)C(CC(COC(=O)CCC(=O)O)CC3OC4OC5(C)CCC6C(C)CCC(C3C)C46OO5)OC3OC4(C)CCC1C32OO4 (stereo not drawn) [Compound 8a, bis-trioxane primary succinate monoester]	4.00

====

test system: NCI-H23; experiment: NCI 60 cell line panel screen (SRB); format: cell-based, human; conditions: Non-Small Cell Lung Cancer, NCI-H23
Readout name: Log10GI50

C[C@@H]1CC[C@H]2[C@@H](C)C(=O)O[C@@H]3O[C@]4(C)CC[C@@H]1[C@]32OO4 [Artemisinin]	>−4.00
C[C@@H]1CC[C@H]2[C@@H](C)C(CC(O)(CC3OC4O[C@]5(C)CC[C@H]6[C@H](C)CC[C@@H]([C@H]3C)C46OO5)c3ccc(C(=O)O)cc3)OC3O[C@]4(C)CCC1C32OO4 (stereo partly drawn) [Compound 11b]	−8.19
CC1CCC2C(C)C(CC(COC(=O)c3cc[n+]([O-])cc3)CC3OC4OC5(C)CCC6C(C)CCC(C3C)C46OO5)OC3OC4(C)CCC1C32OO4 (stereo not drawn) [Compound 13]	<−8.30
